- Tested on: normal primary NK cells, pool 3 (3 donors) (IL-2 2.5 ng/mL);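 further: normalised to DMSO-only wells as negative and benzethonium chloride as positive control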
- ASSAY_TEXT: percent inhibition of viability; higher = more inhibition
- CONDITIONS_USED: 72 h; 10000 nM
Mark class 1 only for percent inhibition of viability values smaller than 20%; exact matches and larger values are class 0.

{"COMPOUND": "CN(C[C@@H]1COCCO1)S(=O)(=O)Nc1ccc2ccc3ncc(-c4cnn(C)c4)cc3c(=O)c2c1 [MK-2461] (max concentration tested 10000 nM)", "ASSIGNED_LABEL": "class 1"}
{"COMPOUND": "CN1CCN(CCOc2cc(OC3CCOCC3)c3c(Nc4c(Cl)ccc5c4OCO5)ncnc3c2)CC1 [Saracatinib] (max concentration tested 10000 nM)", "ASSIGNED_LABEL": "class 1"}
{"COMPOUND": "O=C(CCBr)N1CCN(C(=O)CCBr)CC1 [Pipobroman] (max concentration tested 10000 nM)", "ASSIGNED_LABEL": "class 1"}
{"COMPOUND": "Nc1cccc2c1CN(C1CCC(=O)NC1=O)C2=O (stereo not drawn) [Lenalidomide] (max concentration tested 100000 nM)", "ASSIGNED_LABEL": "class 1"}
{"COMPOUND": "Cc1cc(Nc2cc(N3CCN(C)CC3)nc(/C=C/c3ccccc3)n2)n[nH]1 [ENMD-2076] (max concentration tested 10000 nM)", "ASSIGNED_LABEL": "class 0"}
{"COMPOUND": "CNCc1ccc(-c2[nH]c3cc(F)cc4c3c2CCNC4=O)cc1 [Rucaparib] (max concentration tested 10000 nM)", "ASSIGNED_LABEL": "class 1"}

Prompt: Determine whether this compound shows percent inhibition of viability lower than 20% (ties excluded): CO[C@@]12[C@H](COC(N)=O)C3=C(C(=O)C(C)=C(N)C3=O)N1C[C@@H]1N[C@@H]12 [Mitomycin C] (max concentration tested 10000 nM)
Response: class 0

Prompt: Determine whether this compound shows percent inhibition of viability lower than 20% (ties excluded): COc1cc(Nc2c(C#N)cnc3cc(OCCCN4CCN(C)CC4)c(OC)cc23)c(Cl)cc1Cl [Bosutinib] (max concentration tested 10000 nM)
Response: class 0
